- PROTOCOL_DESCRIPTION: Solubility in organic solvents
- Assay type: physicochemical
- MEASUREMENT_CONDITIONS: oil or lipid, thermodynamic from solid; Oleic acid, room temperature; read-out: Solubility
QUANTITY: solubility at 24 h (mg/mL)
Value expressed in mg/mL; do not type the unit.

Using the record for COc1ccc2c(c1)-c1nc(SCC(F)(F)F)n(C)c(=O)c1C(C)(C)C2 , report its solubility at 24 h.
24.1

###

- PROTOCOL_DESCRIPTION: Mammalian cell cytotoxicity assay (CCK-8)
- Type: cell-based, human
- MEASUREMENT_CONDITIONS: human, TZM-bL cells (HeLa cell derivative), TZM-bL cells, 50 µM, 24 h, single samples; read-out: Cell viability %
QUANTITY: viability at 24 h, 50 µM
Answer format: value, then unit.

Using the record for COc1ccc2c(c1)-c1nc(SCC(F)(F)F)n(C)c(=O)c1C(C)(C)C2 , report its viability at 24 h, 50 µM.
61.3%
